B1: HEEH_KT_rd6_0007 (parent)
chain: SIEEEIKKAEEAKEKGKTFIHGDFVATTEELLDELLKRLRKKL

# Variants of: B1
# test description: folding stability dG (cDNA display proteolysis); higher = more stable
# setup conditions: PBS, room temperature
quantity kind: folding stability dG (kcal/mol)
Value expressed in kcal/mol; do not type the unit.

I6M = 0.782
I20S = 0.913
I20L = 0.842
E29L = 1.64
T18A = 1.3

Req: Requested read-out: folding stability dG. Entry: R40A
Resp: 0.53

Req: Please give the measured folding stability dG for this variant: E4Q
Resp: 1.11

Req: For the variant K37T , what folding stability dG is on record?
Resp: 1.26

Cited source: the MegaScale stability set (Tsuboyama et al. 2023)
